System: Proteus vulgaris
Test summary: Antibacterial activity against clinical isolates Proteus vulgaris after 24 hrs by agar diffusion assay
Type: functional

[
  {
    "Chemical structure": "Cc1[nH][nH]c(=O)c1[C@@H](c1cccc(Br)c1)c1c(O)[nH]c(=O)[nH]c1=O",
    "Unit tag": "mg/L",
    "MIC": 100
  },
  {
    "Chemical structure": "CCOC(=O)[C@H](c1c(C)[nH][nH]c1=O)c1c(O)[nH]c(=O)[nH]c1=O",
    "Unit tag": "mg/L",
    "MIC": 100
  },
  {
    "Chemical structure": "COc1ccccc1[C@H](c1c(C)[nH][nH]c1=O)c1c(O)[nH]c(=O)[nH]c1=O",
    "Unit tag": "mg/L",
    "MIC": 100
  }
]

====

Test system: Pseudomonas syringae
Test summary: Antibacterial activity against clinical isolate Gram-negative Pseudomonas syringae after 24 hrs by agar diffusion assay
Assay type: functional
Each entry below lists one item and its recorded MIC value.

[
  {
    "Chemical structure": "COc1ccccc1[C@H](c1c(C)[nH][nH]c1=O)c1c(O)[nH]c(=O)[nH]c1=O",
    "Unit tag": "mg/L",
    "MIC": 100
  },
  {
    "Chemical structure": "CC1(C)S[C@@H]2[C@H](NC(=O)[C@H](N)c3ccccc3)C(=O)N2[C@H]1C(=O)O",
    "Unit tag": "mg/L",
    "MIC": 5
  },
  {
    "Chemical structure": "Cc1[nH][nH]c(=O)c1[C@@H](c1ccccc1Cl)c1c(O)[nH]c(=O)[nH]c1=O",
    "Unit tag": "mg/L",
    "MIC": 100
  },
  {
    "Chemical structure": "CCOC(=O)[C@H](c1c(C)[nH][nH]c1=O)c1c(O)[nH]c(=O)[nH]c1=O",
    "Unit tag": "mg/L",
    "MIC": 100
  },
  {
    "Chemical structure": "Cc1[nH][nH]c(=O)c1[C@@H](c1cccc(Br)c1)c1c(O)[nH]c(=O)[nH]c1=O",
    "Unit tag": "mg/L",
    "MIC": 100
  },
  {
    "Chemical structure": "Cc1[nH][nH]c(=O)c1[C@@H](c1ccc(F)cc1)c1c(O)[nH]c(=O)[nH]c1=O",
    "Unit tag": "mg/L",
    "MIC": 25
  },
  {
    "Chemical structure": "Cc1[nH][nH]c(=O)c1[C@@H](c1ccccc1[N+](=O)[O-])c1c(O)[nH]c(=O)[nH]c1=O",
    "Unit tag": "mg/L",
    "MIC": 100
  },
  {
    "Chemical structure": "NC[C@H]1O[C@H](O[C@H]2[C@H](O)[C@@H](O[C@H]3O[C@H](CO)[C@@H](O)[C@H](N)[C@H]3O)[C@H](N)C[C@@H]2N)[C@H](O)[C@@H](O)[C@@H]1O",
    "Unit tag": "mg/L",
    "MIC": 10
  }
]

====

Test summary: Induction of apoptosis in Swiss albino mouse DLA cells at 100 ug/ml after 12 hrs by AO/EtBr staining based fluorescence microscopic analysis
Format: functional
Each entry below lists one item and its recorded Activity value.
Measurement name: Activity (%)

[
  {
    "Chemical structure": "Cc1[nH][nH]c(=O)c1[C@@H](c1cccc(Br)c1)c1c(O)[nH]c(=O)[nH]c1=O",
    "Measurement name": "Activity",
    "Endpoint value": 13
  },
  {
    "Chemical structure": "CCC[C@H](c1c(C)[nH][nH]c1=O)c1c(O)[nH]c(=O)[nH]c1=O",
    "Measurement name": "Activity",
    "Endpoint value": 12
  },
  {
    "Chemical structure": "Cc1[nH][nH]c(=O)c1[C@@H](c1ccc(Cl)cc1)c1c(O)[nH]c(=O)[nH]c1=O",
    "Measurement name": "Activity",
    "Endpoint value": 18
  },
  {
    "Chemical structure": "Cc1[nH][nH]c(=O)c1[C@@H](c1cccc([N+](=O)[O-])c1)c1c(O)[nH]c(=O)[nH]c1=O",
    "Measurement name": "Activity",
    "Endpoint value": 15
  },
  {
    "Chemical structure": "COc1ccc([C@H](c2c(C)[nH][nH]c2=O)c2c(O)[nH]c(=O)[nH]c2=O)cc1",
    "Measurement name": "Activity",
    "Endpoint value": 15
  },
  {
    "Chemical structure": "CCOC(=O)[C@H](c1c(C)[nH][nH]c1=O)c1c(O)[nH]c(=O)[nH]c1=O",
    "Measurement name": "Activity",
    "Endpoint value": 23
  },
  {
    "Chemical structure": "Cc1[nH][nH]c(=O)c1[C@@H](c1ccc([N+](=O)[O-])cc1)c1c(O)[nH]c(=O)[nH]c1=O",
    "Measurement name": "Activity",
    "Endpoint value": 12
  }
]
